target: VP1 pentamer of BKV genotype I (truncated VP1, residues 31 to 301, Dunlop sequence with Cys 104 replaced by Ser) (BK virus genotype I (Dunlop)) (UniProt P03088); assay: ELISA, coated VP1 pentamer
Sequence (P03088 31-301): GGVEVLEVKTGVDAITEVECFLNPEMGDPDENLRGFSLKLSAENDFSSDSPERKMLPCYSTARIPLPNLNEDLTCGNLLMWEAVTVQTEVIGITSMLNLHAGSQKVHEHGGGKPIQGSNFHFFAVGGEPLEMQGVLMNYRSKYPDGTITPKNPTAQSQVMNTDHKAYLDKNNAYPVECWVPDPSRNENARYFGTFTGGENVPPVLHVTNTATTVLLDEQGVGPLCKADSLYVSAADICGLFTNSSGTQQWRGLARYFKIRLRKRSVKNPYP
ATTRIBUTE MEASURED: EC50 (µg/mL)

{"BINDER": "B9P6 (antibody, V domains shown) VH: EVQLVESGGGLVQPGGSLRLSCAASGFTFRSYTMDWVRQAPGKGLEWVSCISGSSNHKYYADSVRGRFTISRDNAKNSLFLQMNSLRAEDSAVYYCAREDDILTPLYGMDVWGPGTTVTVSS VL: EIVLTQSPDTLSLSPGARATLSCRASQSVRSNYLAWYQQKPGQAPRLLIYGASSRATAIPDRFSGSGSGTDFTLTITRLEPEDFAVYYCHQYGSSPRTFGQGTKVEIK", "QUANTITATIVE READOUT": 0.12}
{"BINDER": "B10P1 (antibody, V domains shown) VH: EVQLSESGGGLVQPGGSLRLSCAASGFTFSSYAMSWVRQAPGKGLEWVSSLTGSGGSTYYRDSVKGRFTIFRDNSKKTLYMQMNSLRAEDTAVYYCAKEGAYSYDFWYFDLWGRGTLVTVSS VL: EIVLTQSPGTLSLSPGERATLSCRASQTVSGNYLAWYQQKPGQSPSLLIYGASSRATGIPDRFTGSGSGTDFTLTISRLEPADFAVYYCQQYGRPLTFGGGTKVDIK", "QUANTITATIVE READOUT": 7}
{"BINDER": "G11P1 (antibody, V domains shown) VH: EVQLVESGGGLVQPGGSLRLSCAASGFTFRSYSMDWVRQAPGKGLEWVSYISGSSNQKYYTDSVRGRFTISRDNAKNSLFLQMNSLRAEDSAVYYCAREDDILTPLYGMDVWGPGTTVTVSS VL: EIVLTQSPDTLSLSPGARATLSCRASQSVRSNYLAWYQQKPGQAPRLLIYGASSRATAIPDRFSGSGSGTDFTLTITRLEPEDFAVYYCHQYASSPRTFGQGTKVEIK", "QUANTITATIVE READOUT": 0.7}
